assay-system: myosin ATPase, Porcine Ventricle myofibrils (Sus scrofa)
Construct: Myofibrils from porcine cardiac muscle was isolated from the left ventricle of Yucatan minipigs; tissue Exemplar Genetics; host or cells: left ventricle of Yucatan minipigs, myofibrils
assay-explanation: Myofibril ATPase assay, porcine ventricle myofibrils
Type: biochemical, porcine (Yucatan minipigs)
settings: concentration required to reduce myosin ATP-ase activity by 25%; Porcine Ventricle Prep pCa 25 GEOM_MEAN
We begin with a simple list: items and their reported Porcine Ventricle EC25 (Y75 value).
reported-endpoint: Porcine Ventricle EC25 (Y75 value)

[[record]]
molecule = "CC(NC(=O)Cn1c(=O)[nH]c2ccccc2c1=O)c1ccco1 (stereo not shown)"
assay_system = "myosin ATPase, Porcine Ventricle myofibrils (Sus scrofa)"
reported_endpoint = "Porcine Ventricle EC25 (Y75 value)"
result = "100 µM"

[[record]]
molecule = "C[C@H](NC(=O)Cn1c(=O)[nH]c2cccc(C#N)c2c1=O)c1ncc(C#N)cn1 (single isomer, unassigned)"
assay_system = "myosin ATPase, Porcine Ventricle myofibrils (Sus scrofa)"
reported_endpoint = "Porcine Ventricle EC25 (Y75 value)"
result = "70.61 µM"

[[record]]
molecule = "C[C@H](NC(=O)Cn1c(=O)[nH]c2cnccc2c1=O)c1ccc(F)cc1F"
assay_system = "myosin ATPase, Porcine Ventricle myofibrils (Sus scrofa)"
reported_endpoint = "Porcine Ventricle EC25 (Y75 value)"
result = "100 µM"

[[record]]
molecule = "CC(C)[C@H](N)C(=O)OCn1c(=O)n(CC(=O)N[C@@H](C)c2ccc(F)cc2F)c(=O)c2cc(F)ccc21"
assay_system = "myosin ATPase, Porcine Ventricle myofibrils (Sus scrofa)"
reported_endpoint = "Porcine Ventricle EC25 (Y75 value)"
result = "100 µM"

[[record]]
molecule = "O=C(Cn1c(=O)[nH]c2ccccc2c1=O)N[C@H]1CCCc2cc(F)cc(F)c21 (single isomer, unassigned)"
assay_system = "myosin ATPase, Porcine Ventricle myofibrils (Sus scrofa)"
reported_endpoint = "Porcine Ventricle EC25 (Y75 value)"
result = "100 µM"

[[record]]
molecule = "C[C@@H](NC(=O)Cn1c(=O)[nH]c2ccc(F)cc2c1=O)c1ncc(C#N)cc1F (single isomer, unassigned)"
assay_system = "myosin ATPase, Porcine Ventricle myofibrils (Sus scrofa)"
reported_endpoint = "Porcine Ventricle EC25 (Y75 value)"
result = "1.467 µM"

[[record]]
molecule = "O=C(Cn1c(=O)[nH]c2ccncc2c1=O)N[C@H]1CCc2cc(F)cc(F)c21 (single isomer, unassigned)"
assay_system = "myosin ATPase, Porcine Ventricle myofibrils (Sus scrofa)"
reported_endpoint = "Porcine Ventricle EC25 (Y75 value)"
result = "100 µM"


====

assay-system: myosin ATPase, Porcine Ventricle myofibrils (Sus scrofa)
Construct: Myofibrils from porcine cardiac muscle was isolated from the left ventricle of Yucatan minipigs; tissue Exemplar Genetics; host or cells: left ventricle of Yucatan minipigs, myofibrils
assay-explanation: Myofibril ATPase assay, porcine ventricle myofibrils
Format: biochemical, porcine (Yucatan minipigs)
settings: concentration required to reduce myosin ATP-ase activity by 25%; Porcine Ventricle Prep pCa 25 GEOM_MEAN
reported-endpoint: Porcine Ventricle EC25 (Y75 value) (µM)

[[record]]
molecule = "CC(C)CC(C(=O)N[C@@H](C)c1ccc(F)cc1F)n1c(=O)[nH]c2ccccc2c1=O (single isomer, unassigned)"
reported_endpoint = "Porcine Ventricle EC25 (Y75 value)"
recorded_number = 100

[[record]]
molecule = "C[C@H](NC(=O)Cn1c(=O)[nH]c2ccc(F)c(F)c2c1=O)c1ncc(C#N)cc1F (single isomer, unassigned)"
reported_endpoint = "Porcine Ventricle EC25 (Y75 value)"
recorded_number = 0.205

[[record]]
molecule = "C[C@@H](NC(=O)C1(n2c(=O)[nH]c3cccc(C#N)c3c2=O)CC1)c1ncc(C#N)cc1F (single isomer, unassigned)"
reported_endpoint = "Porcine Ventricle EC25 (Y75 value)"
recorded_number = 100.00


====

assay-system: myosin ATPase, Porcine Ventricle myofibrils (Sus scrofa)
Construct: Myofibrils from porcine cardiac muscle was isolated from the left ventricle of Yucatan minipigs; tissue Exemplar Genetics; host or cells: left ventricle of Yucatan minipigs, myofibrils
assay-explanation: Myofibril ATPase assay, porcine ventricle myofibrils
Assay type: biochemical, porcine (Yucatan minipigs)
settings: concentration required to reduce myosin ATP-ase activity by 25%; Porcine Ventricle Prep pCa 25 GEOM_MEAN
reported-endpoint: Porcine Ventricle EC25 (Y75 value) (µM)

[[record]]
molecule = "CCC(C(=O)N[C@@H](C)c1ccc(F)cc1F)n1c(=O)[nH]c2ccccc2c1=O (single isomer, unassigned) [Compound 509]"
u = "µM"
recorded_number = 100

[[record]]
molecule = "COc1ccc([C@H](C)NC(=O)Cn2c(=O)[nH]c3ccccc3c2=O)cc1 (single isomer, unassigned) [Compound 529]"
u = "µM"
recorded_number = 100

[[record]]
molecule = "CC(NC(=O)Cn1c(=O)[nH]c2ccccc2c1=O)c1cnccn1 (centres unmarked) [Compound 215]"
u = "µM"
recorded_number = 45.3

[[record]]
molecule = "Cc1cc(C#N)cnc1[C@@H](C)NC(=O)Cn1c(=O)[nH]c2ccc(F)c(F)c2c1=O (single isomer, unassigned) [Compound 13]"
u = "µM"
recorded_number = 0.119

[[record]]
molecule = "C[C@H](NC(=O)Cn1c(=O)[nH]c2ccnc(O)c2c1=O)c1ccc(F)cc1F [Compound 59]"
u = "µM"
recorded_number = 100

[[record]]
molecule = "C[C@H](NC(=O)[C@H](Cc1ccccc1)n1c(=O)[nH]c2cccc(O)c2c1=O)c1ccc(F)cc1F [Compound 33]"
u = "µM"
recorded_number = 100

[[record]]
molecule = "C[C@H](NC(=O)Cn1c(=O)[nH]c2cccc(F)c2c1=O)c1ccc(F)cc1F [Compound 154]"
u = "µM"
recorded_number = 1.15

[[record]]
molecule = "C[C@@H](NC(=O)Cn1c(=O)[nH]c2ccccc2c1=O)c1ccc(F)cc1F [Compound 166]"
u = "µM"
recorded_number = 100

[[record]]
molecule = "C[C@@H](NC(=O)Cn1c(=O)[nH]c2ccc(F)c(F)c2c1=O)c1ccc(C#N)nn1 (single isomer, unassigned) [Compound 3]"
u = "µM"
recorded_number = 100

[[record]]
molecule = "CC(C)C(C(=O)N[C@@H](C)c1ccc(F)cc1F)n1c(=O)[nH]c2ccccc2c1=O (single isomer, unassigned) [Compound 513]"
u = "µM"
recorded_number = 100

[[record]]
molecule = "CC(C)CN(C(=O)Cn1c(=O)[nH]c2ccccc2c1=O)C(C)c1ccc(F)cc1F (centres unmarked) [Compound 506]"
u = "µM"
recorded_number = 29.03

[[record]]
molecule = "C[C@H](NC(=O)C1(n2c(=O)[nH]c3cccc(C#N)c3c2=O)CC1)c1ncc(C#N)cc1F (single isomer, unassigned) [Compound 3015]"
u = "µM"
recorded_number = 10.96

[[record]]
molecule = "Cc1c(F)ccc2[nH]c(=O)n(CC(=O)N[C@H](C)c3ccc(C#N)cn3)c(=O)c12 (single isomer, unassigned) [Compound 3009]"
u = "µM"
recorded_number = 0.25

[[record]]
molecule = "C[C@H](NC(=O)Cn1c(=O)[nH]c2ccccc2c1=O)c1ccncc1F (single isomer, unassigned) [Compound 99]"
u = "µM"
recorded_number = 100


====

Each entry below carries its recorded Porcine Ventricle EC25 (Y75 value).
assay-system: myosin ATPase, Porcine Ventricle myofibrils (Sus scrofa)
Construct: Myofibrils from porcine cardiac muscle was isolated from the left ventricle of Yucatan minipigs; tissue Exemplar Genetics; host or cells: left ventricle of Yucatan minipigs, myofibrils
assay-explanation: Myofibril ATPase assay, porcine ventricle myofibrils
Type: biochemical, porcine (Yucatan minipigs)
settings: concentration required to reduce myosin ATP-ase activity by 25%; Porcine Ventricle Prep pCa 25 GEOM_MEAN
reported-endpoint: Porcine Ventricle EC25 (Y75 value) (µM)

[[record]]
compound = "C[C@H](NC(=O)C(C)(C)n1c(=O)[nH]c2ccccc2c1=O)c1ccc(F)cc1F"
recorded_number = 100

[[record]]
compound = "C[C@H](NC(=O)[C@@H](C)n1c(=O)[nH]c2ccc(F)c(F)c2c1=O)c1ccc(F)cc1F"
recorded_number = 17.77

[[record]]
compound = "C[C@H](NC(=O)[C@H](CC1CC1)n1c(=O)[nH]c2ccccc2c1=O)c1ncc(F)cc1F (single isomer, unassigned)"
recorded_number = 100

[[record]]
compound = "Cc1ccc2[nH]c(=O)n(CC(=O)N[C@@H](C)c3ncc(C#N)cc3F)c(=O)c2c1F (single isomer, unassigned)"
recorded_number = 0.51

[[record]]
compound = "CC(NC(=O)Cn1c(=O)[nH]c2ccccc2c1=O)c1ncc(F)cc1F (stereo not shown)"
recorded_number = 100

[[record]]
compound = "Cc1ccc2[nH]c(=O)n(CC(=O)N[C@@H](C)c3ccc(F)cc3F)c(=O)c2c1"
recorded_number = 13.83

[[record]]
compound = "C[C@H](NC(=O)Cn1c(=O)[nH]c2ncncc2c1=O)c1ccc(F)cc1F"
recorded_number = 100


====

assay-system: myosin ATPase, Porcine Ventricle myofibrils (Sus scrofa, UniProt P79293)
Construct: Myofibrils from porcine cardiac muscle was isolated from the left ventricle of Yucatan minipigs; tissue Exemplar Genetics; host or cells: left ventricle of Yucatan minipigs, myofibrils
Sequence (P79293 whole entry): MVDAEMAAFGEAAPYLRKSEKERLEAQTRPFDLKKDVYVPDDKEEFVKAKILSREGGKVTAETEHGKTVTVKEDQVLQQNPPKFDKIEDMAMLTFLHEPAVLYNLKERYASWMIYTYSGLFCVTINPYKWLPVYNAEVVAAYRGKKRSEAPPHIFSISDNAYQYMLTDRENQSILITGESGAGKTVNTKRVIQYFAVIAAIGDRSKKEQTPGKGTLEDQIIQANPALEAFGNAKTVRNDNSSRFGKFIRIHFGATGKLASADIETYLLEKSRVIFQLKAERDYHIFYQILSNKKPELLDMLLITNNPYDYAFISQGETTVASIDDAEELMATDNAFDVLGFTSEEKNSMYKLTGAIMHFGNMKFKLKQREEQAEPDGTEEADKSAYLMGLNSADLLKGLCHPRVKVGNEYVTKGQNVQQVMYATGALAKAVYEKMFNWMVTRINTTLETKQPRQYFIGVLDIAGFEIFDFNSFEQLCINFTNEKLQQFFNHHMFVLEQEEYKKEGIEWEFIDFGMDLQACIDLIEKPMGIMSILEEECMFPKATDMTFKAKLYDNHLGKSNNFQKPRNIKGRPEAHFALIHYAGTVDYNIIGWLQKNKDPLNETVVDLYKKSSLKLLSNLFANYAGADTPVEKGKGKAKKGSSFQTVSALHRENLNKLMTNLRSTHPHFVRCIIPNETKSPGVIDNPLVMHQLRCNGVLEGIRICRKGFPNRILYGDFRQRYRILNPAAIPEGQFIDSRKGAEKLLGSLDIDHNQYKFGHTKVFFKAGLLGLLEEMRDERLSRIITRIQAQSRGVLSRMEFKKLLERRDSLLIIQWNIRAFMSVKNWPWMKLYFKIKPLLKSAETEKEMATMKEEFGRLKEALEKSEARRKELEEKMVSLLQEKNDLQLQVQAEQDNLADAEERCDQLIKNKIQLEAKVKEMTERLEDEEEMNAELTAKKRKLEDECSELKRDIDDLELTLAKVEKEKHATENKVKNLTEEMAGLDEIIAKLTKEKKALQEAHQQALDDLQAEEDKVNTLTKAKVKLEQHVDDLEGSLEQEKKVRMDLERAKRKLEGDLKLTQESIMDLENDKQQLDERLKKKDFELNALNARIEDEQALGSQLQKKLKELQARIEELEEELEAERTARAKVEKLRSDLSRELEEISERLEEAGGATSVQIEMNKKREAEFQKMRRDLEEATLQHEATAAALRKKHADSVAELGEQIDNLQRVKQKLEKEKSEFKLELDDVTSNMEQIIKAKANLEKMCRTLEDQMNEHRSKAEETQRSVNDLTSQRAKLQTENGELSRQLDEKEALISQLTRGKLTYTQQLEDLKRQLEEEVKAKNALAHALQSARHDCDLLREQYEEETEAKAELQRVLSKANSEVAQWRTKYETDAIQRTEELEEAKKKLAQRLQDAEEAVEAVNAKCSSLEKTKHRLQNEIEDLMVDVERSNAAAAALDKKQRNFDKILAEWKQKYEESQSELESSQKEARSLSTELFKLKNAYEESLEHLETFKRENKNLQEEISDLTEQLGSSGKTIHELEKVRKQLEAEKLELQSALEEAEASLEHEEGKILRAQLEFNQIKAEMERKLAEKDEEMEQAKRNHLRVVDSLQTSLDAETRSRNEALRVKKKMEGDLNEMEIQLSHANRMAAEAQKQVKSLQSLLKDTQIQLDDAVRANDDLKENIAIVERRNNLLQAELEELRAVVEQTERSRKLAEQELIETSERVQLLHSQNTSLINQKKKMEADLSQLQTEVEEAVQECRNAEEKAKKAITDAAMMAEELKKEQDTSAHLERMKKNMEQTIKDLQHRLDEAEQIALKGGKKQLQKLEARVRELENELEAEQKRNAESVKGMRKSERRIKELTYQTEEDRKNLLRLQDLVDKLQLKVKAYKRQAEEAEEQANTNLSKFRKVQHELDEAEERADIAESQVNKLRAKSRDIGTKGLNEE
assay-explanation: Myofibril ATPase assay, porcine ventricle myofibrils
Assay type: biochemical, porcine (Yucatan minipigs)
settings: concentration required to reduce myosin ATP-ase activity by 25%; Porcine Ventricle Prep pCa 25 GEOM_MEAN
reported-endpoint: Porcine Ventricle EC25 (Y75 value) (µM)

[[record]]
molecule = "C[C@H](NC(=O)C1(n2c(=O)[nH]c3ccc(F)c(F)c3c2=O)CC1)c1ncc(C#N)cc1F (single isomer, unassigned)"
recorded_number = 1.04

[[record]]
molecule = "C[C@H](NC(=O)[C@H](C)n1c(=O)[nH]c2ccc(F)c(F)c2c1=O)c1ccc(F)cc1F"
recorded_number = 3.995

[[record]]
molecule = "C[C@H](NC(=O)Cn1c(=O)[nH]c2ccccc2c1=O)c1ccc(F)cc1F"
recorded_number = 7.022

[[record]]
molecule = "O=C(Cn1c(=O)[nH]c2ccccc2c1=O)NCc1ccc(F)cc1F"
recorded_number = 100

[[record]]
molecule = "C[C@H](NC(=O)Cn1c(=O)[nH]c2ccccc2c1=O)c1cc(C(F)(F)F)cc(C(F)(F)F)c1 (single isomer, unassigned)"
recorded_number = 100

[[record]]
molecule = "C[C@H](NC(=O)[C@@H](CC1CC1)n1c(=O)[nH]c2ccccc2c1=O)c1ccc(F)cc1F (single isomer, unassigned)"
recorded_number = 100

[[record]]
molecule = "COc1ccc2c(=O)n(CC(=O)N[C@@H](C)c3ccc(F)cc3F)c(=O)[nH]c2c1"
recorded_number = 100

